# target_under_test: CDK4/Cyclin D1 (Homo sapiens, UniProt P24385)
# Sequence (P24385 whole entry): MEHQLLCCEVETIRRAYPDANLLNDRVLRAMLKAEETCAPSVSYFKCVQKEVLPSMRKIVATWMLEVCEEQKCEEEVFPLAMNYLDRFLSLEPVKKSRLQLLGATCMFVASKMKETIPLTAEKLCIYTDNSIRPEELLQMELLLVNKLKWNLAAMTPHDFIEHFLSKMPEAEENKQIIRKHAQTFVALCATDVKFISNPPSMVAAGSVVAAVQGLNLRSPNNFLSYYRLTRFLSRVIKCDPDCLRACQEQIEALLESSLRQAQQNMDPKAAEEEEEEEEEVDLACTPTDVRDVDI
# Sequence (P11802 whole entry partner): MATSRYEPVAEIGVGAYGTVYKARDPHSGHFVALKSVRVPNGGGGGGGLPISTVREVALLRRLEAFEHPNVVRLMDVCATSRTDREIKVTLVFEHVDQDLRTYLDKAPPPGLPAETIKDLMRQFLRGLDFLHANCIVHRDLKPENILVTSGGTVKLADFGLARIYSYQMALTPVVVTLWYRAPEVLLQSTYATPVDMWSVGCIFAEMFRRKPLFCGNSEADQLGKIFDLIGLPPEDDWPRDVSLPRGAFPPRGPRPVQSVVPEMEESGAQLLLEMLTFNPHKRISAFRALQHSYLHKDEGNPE
# assay_notes: Fluorescence polarization (FP) competitive binding assay
# assay_setup: Table 11, value tagged (LIF) (0321); read-out: IC50 CDK4/D1 (LIF) (0321)
Where a SMILES comes first, the peptide text is derived from it. The star is where a group is joined. Picolinoyl = O=C(c1ccccn1)*
quantity_measured: IC50 (µM)
Write down the numeric answer in µM and omit the unit.

# query: IC50 | item CC[C@H](C)[C@H](NC(=O)[C@H](CC(C)C)NC(=O)[C@H](CCCNC(=N)N)NC(=O)c1ccccn1)C(=O)N[C@@H](Cc1ccccc1)C(=O)O [525 (RLIF form)] (Picolinoyl-RLIF-OH) | system: CDK4/Cyclin D1 (Homo sapiens, UniProt P24385)
49
